# TEST_TARGET: SARS-CoV-2 nsp3-mac1 (Severe acute respiratory syndrome coronavirus 2, UniProt P0DTD1)
# PROCEDURE_TEXT: biochemical
# Type: biochemical
# TEST_CONDITIONS: SARS-CoV-2 nsp3 macrodomain TR-FRET single point, concentration 50.0 uM
QUANTITY_KIND: perc_inhibition_mean (%)

CHEMICAL_SMILES | TEST_TARGET | UNITS_LABEL | RECORDED_NUMBER
O[C@H]1C[C@](CNc2ncnc3[nH]ccc23)(c2ccccc2)C1 | SARS-CoV-2 nsp3-mac1 (Severe acute respiratory syndrome coronavirus 2, UniProt P0DTD1) | % | 11.369
CN(c1ncnc2[nH]ccc12)[C@H]1CCN(S(C)(=O)=O)C1 | SARS-CoV-2 nsp3-mac1 (Severe acute respiratory syndrome coronavirus 2, UniProt P0DTD1) | % | -0.371
Clc1cnc(N2CCN(c3ncnc4[nH]ccc34)CC2)c(Cl)c1 | SARS-CoV-2 nsp3-mac1 (Severe acute respiratory syndrome coronavirus 2, UniProt P0DTD1) | % | -1.996
Cc1noc([C@@H]2CCCN(c3ncnc4[nH]ccc34)C2)n1 | SARS-CoV-2 nsp3-mac1 (Severe acute respiratory syndrome coronavirus 2, UniProt P0DTD1) | % | 1.916
CNC(=O)c1cccc(CNC(=O)c2ncnc3[nH]ccc23)c1 | SARS-CoV-2 nsp3-mac1 (Severe acute respiratory syndrome coronavirus 2, UniProt P0DTD1) | % | -5.906
CC(C)(c1noc(-c2ncnc3[nH]ccc23)n1)S(C)(=O)=O | SARS-CoV-2 nsp3-mac1 (Severe acute respiratory syndrome coronavirus 2, UniProt P0DTD1) | % | -0.756
Cc1cccc(C)c1-n1nnnc1CSc1ncnc2[nH]cnc12 | SARS-CoV-2 nsp3-mac1 (Severe acute respiratory syndrome coronavirus 2, UniProt P0DTD1) | % | 6.631
COc1ccc(Nc2ncnc3[nH]ncc23)c(OC)c1 | SARS-CoV-2 nsp3-mac1 (Severe acute respiratory syndrome coronavirus 2, UniProt P0DTD1) | % | 2.597
CS(=O)(=O)N1CC[C@@H](COC(=O)c2ncnc3[nH]ccc23)C1 | SARS-CoV-2 nsp3-mac1 (Severe acute respiratory syndrome coronavirus 2, UniProt P0DTD1) | % | 0.187

====

# PROCEDURE_TEXT: Permeability Papp (AB) MDR1/MDCKII
# TEST_CONDITIONS: In vitro MDR1-MDCKII permeability, recovery A to B, mean
Binary classification by perc_recovery_a_to_b_mean, with 80% as an inclusive lower bound for MET; all other cases are NOT MET.

MOLECULE | QUALITATIVE_LABEL
CC(C)[C@@H](Nc1ncnc2[nH]c(-c3cnn(CCC(N)=O)c3)cc12)c1ccc2c(c1)OCCO2 | MET
CC(C)[C@H](Nc1ncnc2[nH]ccc12)c1ccc2c(c1)S(=O)(=O)CCC2 | MET
CC(C)[C@H](Nc1ncnc2[nH]c(-c3cnn(C)c3C#N)cc12)c1ccc2c(c1)S(=O)(=O)CCC2 (single isomer, unassigned) | NOT MET
COc1ccc2c(c1)CCN(c1ncnc3[nH]ccc13)[C@H]2C(C)C (racemic) | NOT MET
CC(C)[C@H](Nc1ncnc2[nH]c(-c3cnn(C)c3C#N)cc12)c1ccc2c(c1)NC(=O)CO2 (single isomer, unassigned) [ASAP-0013255] | NOT MET
CC(C)[C@H](Nc1ncnc2[nH]cc(C(=O)NC3CC3)c12)c1ccc2c(c1)S(=O)(=O)CCC2 (racemic) | NOT MET
CCNC(=O)c1cc2c(NC(c3ccc4c(c3)OCCO4)C(C)C)ncnc2[nH]1 (centres unmarked) | MET
CC(C)[C@@H](Nc1ncnc2[nH]c(-c3cnn(C)c3)cc12)c1ccc2c(c1)S(=O)(=O)NCC2 | MET
CC(C)[C@H](Nc1ncnc2[nH]cc(C(N)=O)c12)c1ccc2c(c1)OCCO2 (racemic) | MET
CC(C)[C@@H](Nc1ncnc2[nH]c(-c3cnn(CC(N)=O)c3)cc12)c1ccc2c(c1)S(=O)(=O)CCC2 | NOT MET
CC(C)[C@H](Nc1ncnc2[nH]c(-c3cnn(CC(N)=O)c3)cc12)c1ccc2c(c1)OCCO2 (single isomer, unassigned) | MET
CC(C)[C@@H](Nc1ncnc2[nH]c(-c3cnn(C)c3C#N)cc12)c1ccc2c(c1)S(=O)(=O)CCC2 (single isomer, unassigned) [ASAP-0011147] | NOT MET

====

# PROCEDURE_TEXT: Hepatic microsomal stability, MLM
# Format: in vitro ADME
# TEST_CONDITIONS: In vitro mouse liver microsomal stability
QUANTITY_KIND: perc_remaining (%)

MOLECULE | UNITS_LABEL | RECORDED_NUMBER
CNCc1cc(-c2cc3c(N[C@@H](c4ccc5c(c4)S(=O)(=O)CCC5)C(C)C)ncnc3[nH]2)co1 [ASAP-0010745] | % | 41.0
CC(C)[C@H](Nc1ncnc2[nH]c(-c3cnn(CC(N)=O)c3)cc12)c1ccc2c(c1)OCCO2 (single isomer, unassigned) [ASAP-0008450] | % | 49.0
CC(C)[C@H](Nc1ncnc2[nH]c(-c3cnn(CC(=O)N(C)C)c3)cc12)c1ccc2c(c1)S(=O)(=O)CCC2 | % | 13.0
CNC(=O)c1c[nH]c2ncnc(N[C@H](c3ccc4c(c3)S(=O)(=O)CCC4)C(C)C)c12 (racemic) [ASAP-0008641] | % | 3.0
CC(C)C(Nc1ncnc2[nH]ccc12)c1ccc2c(c1)S(=O)(=O)CCC2 (stereo not drawn) | % | 10.0
CNC(=O)c1cccc(-c2cc3c(N[C@@H](c4ccc5c(c4)S(=O)(=O)CCC5)C(C)C)ncnc3[nH]2)c1 | % | 1.0
CC(C)[C@H](Nc1ncnc(N)c1Cl)c1ccc2c(c1)S(=O)(=O)CCC2 (racemic) | % | 4.0
CNC(=O)c1cc2c(N[C@@H](c3ccc4c(c3)OCCO4)C(C)C)ncnc2[nH]1 | % | 43.0
CC(C)[C@H](Nc1ncnc2[nH]ccc12)c1ccc2c(c1)NC(=O)CO2 | % | 54.0
CCNC(=O)c1cc2c(NC(c3ccc4c(c3)S(=O)(=O)CCC4)C(C)C)ncnc2[nH]1 (stereo not drawn) | % | 43.0
CC(C)[C@@H](Nc1ncnc2[nH]c(-c3cnn(C)c3C#N)cc12)c1ccc2c(c1)OCCO2 [ASAP-0011033] | % | 13.0
CNC(=O)Cn1cc(-c2cc3c(NC(c4ccc5c(c4)OCCO5)C(C)C)ncnc3[nH]2)cn1 (stereo not drawn) | % | 46.0
CC(C)[C@@H](Nc1ncnc2[nH]c(-c3cnn(C)c3C#N)cc12)c1ccc2c(c1)S(=O)(=O)CCC2 (single isomer, unassigned) [ASAP-0011147] | % | 0.0
CCNC(=O)c1cc2c(N[C@H](c3ccc4c(c3)OCCO4)C(C)C)ncnc2[nH]1 [ASAP-0013824] | % | 47.0
CC(C)C(Nc1ncnc2[nH]c(C(=O)NC3CCN(C)C3)cc12)c1ccc2c(c1)S(=O)(=O)CCC2 (stereo not drawn) | % | 80.0

====

# TEST_TARGET: SARS-CoV-2 nsp3-mac1 (Severe acute respiratory syndrome coronavirus 2, UniProt P0DTD1)
# PROCEDURE_TEXT: biochemical
# Format: biochemical
# TEST_CONDITIONS: SARS-CoV-2 nsp3 macrodomain TR-FRET single point; concentration 99.5 uM
Binary classification by perc_inhibition_mean, with 10% as an inclusive lower bound for criterion met; all other cases are criterion not met.

CHEMICAL_SMILES | QUALITATIVE_LABEL
NC(=O)c1ncccc1C(=O)N1CCC(c2ccn3ncc(C(=O)N4CCCCC4)c3c2)CC1 | criterion met
O=C(c1nnn[nH]1)N1CCC(c2ccn3ncc(C(=O)N4CCCCC4)c3c2)CC1 | criterion met
Cc1[nH]nc(C(=O)N2CCC(c3ccn4ncc(C(=O)N5CCCCC5)c4c3)CC2)c1C | criterion met
CN1CCO[C@@H](CNC(=O)c2cnn3ccc(C4CCN(C(=O)c5ccccc5)CC4)cc23)C1 | criterion not met
O=C(N[C@H](Cn1cnc2cc(F)c(F)cc21)C(=O)O)c1ncnc2[nH]ccc12 | criterion not met
CC(C)[C@@H](CO)[C@@H](Nc1ncnc2[nH]ccc12)C(C)C | criterion met
CC(C)[C@@H]1[C@H](O)CCN1c1ncnc2[nH]ccc12 | criterion met
CCN(Cc1nnc(C)o1)C(=O)c1cnn2ccc(C3CCN(C(=O)c4ccccc4)CC3)cc12 | criterion not met
O=C(CCN(Cc1cccc(Cl)c1)C(=O)c1ccc(O)cc1)N1CCNCC1 | criterion not met
Cc1nc(C(=O)N2CCC(c3ccn4ncc(C(=O)N5CCCCC5)c4c3)CC2)c(C)[nH]1 | criterion met
O=C(c1ccccc1)N1CCC(c2ccn3ncc(C(=O)N4CCCC[C@H](O)C4)c3c2)CC1 | criterion met
Cn1cc([C@H]2CSCCN2c2ncnc3[nH]ccc23)cn1 | criterion not met
Cc1cc(C(=O)N2CCC(c3ccn4ncc(C(=O)N5CCCCC5)c4c3)CC2)[nH]n1 | criterion met
O=C(c1ccc(O)nc1)N1CCC(c2ccn3ncc(C(=O)N4CCCCC4)c3c2)CC1 | criterion met
CC(C)[C@@H](CCN(C)C(=O)c1cc2c(s1)CC[C@H](C)C2)Nc1ncnc2[nH]ccc12 | criterion not met
Cc1nc(NC(=O)Cn2cnc3ccccc3c2=O)c2cc[nH]c2n1 | criterion not met
Cc1nn(-c2ccccc2)c(C)c1[C@H]1COCCN1c1ncnc2[nH]ccc12 | criterion not met
Cc1nn(C)c(C)c1[C@H]1COCCN1c1ncnc2[nH]ccc12 | criterion not met
O=C(c1cnc2[nH]ncc2c1)N1CCC(c2ccn3ncc(C(=O)N4CCCCC4)c3c2)CC1 | criterion met
CN(C[C@H]1CCCN1)C(=O)c1cnn2ccc(C3CCN(C(=O)c4ccccc4)CC3)cc12 | criterion not met
Cn1nc(C(=O)O)cc1C(=O)N1CCC(c2ccn3ncc(C(=O)N4CCCCC4)c3c2)CC1 | criterion met
O=C(c1cc(O)ncn1)N1CCC(c2ccn3ncc(C(=O)N4CCCCC4)c3c2)CC1 | criterion met
O=C1CCC[C@@H](C(=O)N(CCC(=O)N2CCNCC2)Cc2cccc(Cl)c2)N1 | criterion not met
CN(C(=O)c1cnn2ccc(C3CCN(C(=O)c4ccccc4)CC3)cc12)c1ccccc1O | criterion met
CN(c1ncnc2[nH]ncc12)[C@@H](CCO)c1ccccc1 | criterion not met
Cc1c[nH]nc1C(=O)N1CCC(c2ccn3ncc(C(=O)N4CCCCC4)c3c2)CC1 | criterion met
CCN1CCN(C(=O)c2cnn3ccc(C4CCN(C(=O)c5ccccc5)CC4)cc23)CC1=O | criterion not met
CC(C)[C@H]1N(c2ncnc3[nH]ccc23)CC12CCOCC2 | criterion met
O=C(CCN(Cc1cccc(Cl)c1)C(=O)[C@H]1CCOC1)N1CCNCC1 | criterion not met
C[C@@H](Nc1ncnc2[nH]ccc12)c1cnn(Cc2ccccc2)c1 | criterion not met
O=C(NCc1ncccn1)c1cnn2ccc(C3CCN(C(=O)c4ccccc4)CC3)cc12 | criterion not met
CC(C)[C@@H](Nc1ncnc2[nH]ccc12)c1cccs1 | criterion met
